# ASSAY DETAILS: self-splicing fitness, log relative to wild type (ln ratio); higher = more splicing; Tetrahymena group I intron in knt gene, E. coli kanamycin selection, DiMSum; sequences stand for … in CUCUCU…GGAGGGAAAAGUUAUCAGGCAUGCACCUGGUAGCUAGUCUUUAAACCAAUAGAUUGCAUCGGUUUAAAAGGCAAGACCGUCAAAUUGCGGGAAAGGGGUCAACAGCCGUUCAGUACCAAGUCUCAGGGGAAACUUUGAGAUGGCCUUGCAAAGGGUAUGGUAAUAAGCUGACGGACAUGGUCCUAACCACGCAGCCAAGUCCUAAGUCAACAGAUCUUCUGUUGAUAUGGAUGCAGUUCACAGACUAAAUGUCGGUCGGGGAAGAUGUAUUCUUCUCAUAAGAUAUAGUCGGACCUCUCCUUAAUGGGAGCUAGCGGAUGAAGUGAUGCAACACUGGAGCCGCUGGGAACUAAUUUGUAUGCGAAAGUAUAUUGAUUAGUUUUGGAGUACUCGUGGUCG;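 further: selection with 25 µg/mL kanamycin versus none on LB agar overnight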
# TEST CONTEXT: 30 °C
Consider the reported self-splicing fitness (ln) of an entry and match it to a band in low range: < -3; mid range: ≥ -3 and < -2; high range: ≥ -2

Q: Band for the recorded self-splicing fitness (ln) of CAUCAGCAAUAUUACGUGCA ?
A: low range

Q: Band for the recorded self-splicing fitness (ln) of UGACAGCAAUAUUACGCAGG ?
A: low range

Q: Band for the recorded self-splicing fitness (ln) of AGAUAGCAAUAUUACGCCGG ?
A: mid range

Q: Band for the recorded self-splicing fitness (ln) of CAAAAGCAAUAUUACGGCCA ?
A: high range

Q: Band for the recorded self-splicing fitness (ln) of CAAUAGCAAUAUUACGGACU ?
A: low range

Q: Band for the recorded self-splicing fitness (ln) of GUAUAGCAAUAUUACGGUCU ?
A: high range

Q: Band for the recorded self-splicing fitness (ln) of CAAGAGCAAUAUUACGAUCA ?
A: high range

Q: Band for the recorded self-splicing fitness (ln) of GGUUAGCAAUAUUACGUGGA ?
A: mid range

Q: Band for the recorded self-splicing fitness (ln) of GCUUAGCAAUAUUACGGUCC ?
A: high range

Q: Band for the recorded self-splicing fitness (ln) of AUGGAGCAAUAUUACGUUCU ?
A: mid range

Q: Band for the recorded self-splicing fitness (ln) of CCACAGCAAUAUUACGUCUG ?
A: low range

Q: Band for the recorded self-splicing fitness (ln) of UGUCAGCAAUAUUACGCAAU ?
A: high range

Q: Band for the recorded self-splicing fitness (ln) of UCCUAGCAAUAUUACGGGCG ?
A: high range

Q: Band for the recorded self-splicing fitness (ln) of AACCAGCAAUAUUACGCGGG ?
A: low range

Q: Band for the recorded self-splicing fitness (ln) of AAACAGCAAUAUUACGCCAU ?
A: low range

Q: Band for the recorded self-splicing fitness (ln) of GGGGAGCAAUAUUACGUGUA ?
A: low range

Q: Band for the recorded self-splicing fitness (ln) of CAUUAGCAAUAUUACGCUAG ?
A: mid range

Q: Band for the recorded self-splicing fitness (ln) of AAAGAGCAAUAUUACGGGUC ?
A: low range

Q: Band for the recorded self-splicing fitness (ln) of UCGGAGCAAUAUUACGGGGA ?
A: high range

Q: Band for the recorded self-splicing fitness (ln) of CAUAAGCAAUAUUACGAGGA ?
A: low range

Q: Band for the recorded self-splicing fitness (ln) of AAGAAGCAAUAUUACGCGAU ?
A: low range

Q: Band for the recorded self-splicing fitness (ln) of GCCUAGCAAUAUUACGCGGC ?
A: low range

Q: Band for the recorded self-splicing fitness (ln) of CAAUAGCAAUAUUACGGUUC ?
A: low range

Q: Band for the recorded self-splicing fitness (ln) of CCGCAGCAAUAUUACGGAGU ?
A: low range

Q: Band for the recorded self-splicing fitness (ln) of AACAAGCAAUAUUACGAUGG ?
A: low range

Q: Band for the recorded self-splicing fitness (ln) of UGCAAGCAAUAUUACGAUAC ?
A: mid range

Q: Band for the recorded self-splicing fitness (ln) of GCAAAGCAAUAUUACGGGAC ?
A: high range

Q: Band for the recorded self-splicing fitness (ln) of UUUUAGCAAUAUUACGUAAG ?
A: high range

Q: Band for the recorded self-splicing fitness (ln) of GUGCAGCAAUAUUACGUAGG ?
A: high range

Q: Band for the recorded self-splicing fitness (ln) of CCUUAGCAAUAUUACGUAUU ?
A: low range

Q: Band for the recorded self-splicing fitness (ln) of GACGAGCAAUAUUACGAGUG ?
A: low range

Q: Band for the recorded self-splicing fitness (ln) of GCGAAGCAAUAUUACGAAGC ?
A: mid range

Q: Band for the recorded self-splicing fitness (ln) of CUAAAGCAAUAUUACGAGGG ?
A: mid range

Q: Band for the recorded self-splicing fitness (ln) of GACCAGCAAUAUUACGCUAG ?
A: high range

Q: Band for the recorded self-splicing fitness (ln) of AUCUAGCAAUAUUACGGAUU ?
A: low range

Q: Band for the recorded self-splicing fitness (ln) of GUCCAGCAAUAUUACGGGAA ?
A: high range

Q: Band for the recorded self-splicing fitness (ln) of UACCAGCAAUAUUACGGUGC ?
A: low range

Q: Band for the recorded self-splicing fitness (ln) of UCUAAGCAAUAUUACGAGUC ?
A: low range

Q: Band for the recorded self-splicing fitness (ln) of GGACAGCAAUAUUACGACUG ?
A: high range

Q: Band for the recorded self-splicing fitness (ln) of ACUCAGCAAUAUUACGCCUU ?
A: high range

Q: Band for the recorded self-splicing fitness (ln) of GUCAAGCAAUAUUACGAUUU ?
A: high range

Q: Band for the recorded self-splicing fitness (ln) of UGGCAGCAAUAUUACGGGAA ?
A: mid range

Q: Band for the recorded self-splicing fitness (ln) of UACAAGCAAUAUUACGUUCU ?
A: high range

Q: Band for the recorded self-splicing fitness (ln) of CGGGAGCAAUAUUACGCUAA ?
A: mid range

Q: Band for the recorded self-splicing fitness (ln) of ACCAAGCAAUAUUACGAUAU ?
A: low range

Q: Band for the recorded self-splicing fitness (ln) of CGCGAGCAAUAUUACGGGCG ?
A: low range

Q: Band for the recorded self-splicing fitness (ln) of UCAUAGCAAUAUUACGGCCG ?
A: high range

Q: Band for the recorded self-splicing fitness (ln) of AGUAAGCAAUAUUACGUGGA ?
A: low range

Q: Band for the recorded self-splicing fitness (ln) of AUGGAGCAAUAUUACGCAGG ?
A: low range

Q: Band for the recorded self-splicing fitness (ln) of AAACAGCAAUAUUACGUCAG ?
A: low range

Q: Band for the recorded self-splicing fitness (ln) of CUGAAGCAAUAUUACGCACU ?
A: low range

Q: Band for the recorded self-splicing fitness (ln) of UCCCAGCAAUAUUACGAGUU ?
A: low range

Q: Band for the recorded self-splicing fitness (ln) of GUGUAGCAAUAUUACGGGCC ?
A: high range
